B1: ZNF649 (parent)
chain: YQAGKPDALTKLEQGEPLWTLEDE

Variants of: B1
Assay: protein stability index of a GFP-peptide fusion (GPS, HEK-293T) (PSI 1-6); higher = more stable;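 further: lentivirally expressed fusions sorted by FACS into six bins by GFP to DsRed ratio, PSI derived from sequencing read proportions per bin multiplied by bin number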
Conditions: c terminus: a fixed tail appended
Outcome: class 1 for protein stability index of at least 4; class 0 for anything lower.

Residue sequence	Class
YQAGKPDALTKLEYGEPLWTLEDE [Q14Y]	class 0
FQAGKPDALTKLEQGEPLWTLEDE [Y1F]	class 0
YQAGKPDALTKAEQGEPLWTLEDE [L12A]	class 1
YQAGKPDALTKLEQGEPHWTLEDE [L18H]	class 1
YQAGKPDALTKLEQGEPLWDLEDE [T20D]	class 1
YQAGKPDELTKLEQGEPLWTLEDE [A8E]	class 1
YQAGKPDPLTKLEQGEPLWTLEDE [A8P]	class 1
YQAGKPDALTKLEQGEPLWTLMDE [E22M]	class 0
YQAGKPDALTKLEQGEPLWTLECE [D23C]	class 0
YQAGKPDALTKLEQGSPLWTLEDE [E16S]	class 1
YQAGKPDALTKLEQGEPLPTLEDE [W19P]	class 1
YQAGKPDALCKLEQGEPLWTLEDE [T10C]	class 1
YQRGKPDALTKLEQGEPLWTLEDE [A3R]	class 0
YQAGKPDALTKLEQGEPEWTLEDE [L18E]	class 1
YQAAKPDALTKLEQGEPLWTLEDE [G4A]	class 1
YQAGKPDALTKLEQGEPLWTLEDT [E24T]	class 1
YQIGKPDALTKLEQGEPLWTLEDE [A3I]	class 1
YQAGKPDALPKLEQGEPLWTLEDE [T10P]	class 1
YQAGKPDALTKLEQGEPLWTLQDE [E22Q]	class 0
